- MEASURED_ON: Polyadenylate-binding protein 1 (Homo sapiens)
- Sequence (P11940 whole entry): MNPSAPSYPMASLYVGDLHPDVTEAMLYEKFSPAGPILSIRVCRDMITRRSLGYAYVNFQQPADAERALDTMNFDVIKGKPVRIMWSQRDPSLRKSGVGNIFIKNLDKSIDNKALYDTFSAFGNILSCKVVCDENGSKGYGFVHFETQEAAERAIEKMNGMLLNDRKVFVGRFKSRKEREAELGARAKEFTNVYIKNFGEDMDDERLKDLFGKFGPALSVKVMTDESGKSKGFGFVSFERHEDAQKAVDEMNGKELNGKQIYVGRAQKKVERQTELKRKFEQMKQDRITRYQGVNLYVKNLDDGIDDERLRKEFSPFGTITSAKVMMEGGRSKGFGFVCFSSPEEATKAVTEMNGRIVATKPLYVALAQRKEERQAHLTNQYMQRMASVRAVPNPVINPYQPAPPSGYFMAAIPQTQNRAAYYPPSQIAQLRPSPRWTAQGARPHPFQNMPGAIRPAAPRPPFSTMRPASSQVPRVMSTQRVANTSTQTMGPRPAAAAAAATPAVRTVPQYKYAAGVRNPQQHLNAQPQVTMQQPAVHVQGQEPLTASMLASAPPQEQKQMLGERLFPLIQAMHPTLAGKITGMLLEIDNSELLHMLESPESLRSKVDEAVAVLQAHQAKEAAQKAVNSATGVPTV
- PROTOCOL_NOTES: PABP1 MLLE–PAM2 interaction inhibitors, dose response, miRNA deadenylation inhibitor project, biochemical, fluorescence polarization, Cy5-PAM2 peptide, secondary (AID 602260)
- Type: functional
- TEST_CONTEXT: read-out: IC50_Mean
Active and inactive are the calls of the source.
Items are presented alongside their recorded IC50.

These recorded examples may help you get a feel for the data.
compound=NC(=S)c1cnn2c(-c3cccc(C(F)(F)F)c3)ccnc12 result="> 66 µM (inactive)"
compound="COc1ccc(-c2nc(C[S+]([O-])CC(=O)NCc3ccccn3)c(C)o2)cc1 (stereo not drawn)" result="> 66 µM (inactive)"

Just so you know, measured IC50 for O=C(O)CN1C(=O)C2C3CC(C2C1=O)C1C(c2ccc(F)cc2)c2sc(O)nc2SC31 (stereo not drawn) came out at > 66 µM (inactive)

* * *

- PROTOCOL_NOTES: inhibitors of SNCA 5'UTR-driven reporter translation, confirmation, H4 neuroglioma cells, luminescence (AID 1988)
- Type: functional, cell-based
Activity calls are given as the source filed them.
Items are presented alongside their recorded EC50.

These recorded examples may help you get a feel for the data.
molecule=O=C(NCCc1ccccc1)c1cnn2c(C(F)F)cc(C3CC3)nc12 measured_attribute=EC50 result="> 120 µM (not active)"
molecule=COC(=O)c1c(C)oc2ccc(N(C(=O)c3ccncc3)S(=O)(=O)c3ccc(C)cc3)cc12 measured_attribute=EC50 result="8.07 µM (active)"
molecule=COc1ccc(N(CC(=O)Nc2cc(Cl)ccc2OC)S(=O)(=O)c2c(C)noc2C)cc1 measured_attribute=EC50 result="5.82 µM (active)"
molecule=COc1cccc(NP(=O)(Oc2ccccc2)Oc2ccccc2)c1 measured_attribute=EC50 result="> 120 µM (not active)"

Could you now look at the following molecule, please?
Just so you know, measured EC50 for CN(C)CCNC(=O)C(=O)NCC1OCCCN1S(=O)(=O)c1cccs1 (stereo not given) came out at > 120 µM (not active)

* * *

- PROTOCOL_NOTES: cells
- Format: functional
Calls of active or inactive are those of the source.
MEASURED_ATTRIBUTE: IC50

These recorded examples may help you get a feel for the data.
compound=O=[N+]([O-])c1cc(Cl)cc(/C=N\Nc2ccccn2)c1O measured_attribute=IC50 result="6.12 µM (active)"
compound=O=C1c2cccc3cc([N+](=O)[O-])cc(c23)C(=O)N1c1ccccc1O measured_attribute=IC50 result="> 50 µM (active)"
compound="CCOC(=O)c1c(NC(=O)C2COc3ccccc3O2)sc2c1CC(C)(C)NC2(C)C (stereo not given)" measured_attribute=IC50 result="36.2 µM (active)"

Just so you know, measured IC50 for Nc1c(C(=O)NC2CCCCC2)nsc1C(=O)OCC(=O)NC1CCCCC1 came out at 1.88 µM (active)

Just so you know, measured IC50 for CCOc1ccc2nc(NC(=O)c3cnc(C)cn3)sc2c1 came out at 6.53 µM (active)

* * *

- MEASURED_ON: UniProt P61088
- Sequence (P61088 whole entry): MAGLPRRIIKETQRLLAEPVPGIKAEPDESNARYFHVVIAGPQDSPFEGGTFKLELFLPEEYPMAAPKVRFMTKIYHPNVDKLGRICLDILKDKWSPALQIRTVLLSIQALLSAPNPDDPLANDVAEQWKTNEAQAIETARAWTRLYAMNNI
- Type: functional
Activity calls are given as the source filed them.
Write down the outcome that applies. Available outcomes: active, inactive

Solved cases below.
input_smiles=CCOc1cc(CNCCc2ccc(S(N)(=O)=O)cc2)ccc1OCc1ccc(Cl)cc1 class_assignment=inactive
input_smiles=CCC[C@@H](CN1CCC[C@H]1CN1C(N)=NC[C@@H]1Cc1ccccc1)N1C[C@@H]([C@H](C)CC)N(CCCC2CCCC2)C1=N class_assignment=active
input_smiles=CCN(CC)CCOC(=O)c1ccc(N/C=C(/C#N)c2nc(-c3ccc(OC)cc3)cs2)cc1 class_assignment=active
input_smiles=CCN1CCN(Cc2ccc(NC(=O)c3cc(NC(=O)c4cncc(-c5ccc(C#N)cc5)c4)cc(OC)c3)cc2C(F)(F)F)CC1 class_assignment=active
input_smiles=c1ccc(CNc2nc(NCc3ccccc3)c3ccccc3n2)cc1 class_assignment=active

Turning now to a further compound:
// query Dear colleague, could you share the recorded outcome for O=C(CCCCCN1C(=O)c2cccc3cccc(c23)C1=O)NCCO when you have a moment?
// result inactive

* * *

- MEASURED_ON: Nonstructural protein 1 (Influenza A virus, UniProt Q194T2)
- Sequence (Q194T2 whole entry): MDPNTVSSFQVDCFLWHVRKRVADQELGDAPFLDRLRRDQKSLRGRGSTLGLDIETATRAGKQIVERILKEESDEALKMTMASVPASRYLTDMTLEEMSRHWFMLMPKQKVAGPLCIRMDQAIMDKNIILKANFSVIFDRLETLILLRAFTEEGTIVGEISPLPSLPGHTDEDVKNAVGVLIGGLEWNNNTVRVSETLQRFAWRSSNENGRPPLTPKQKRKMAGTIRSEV
- Assay type: functional, Influenza A virus (A/California/07/2009(H1N1))
Activity calls are given as the source filed them.
Items are presented alongside their recorded IC50.

input_smiles=CN(c1ccccc1)c1ccc(/C=N/N2CCOCC2)cc1 measured_attribute=IC50 result="> 100 µM (active)"
input_smiles=O=[N+]([O-])c1cc(Cl)cc(/C=N\Nc2ccccn2)c1O measured_attribute=IC50 result="3.89 µM (active)"
input_smiles=CC(C)OC(=O)c1cc2c(ccn2C)n1CC(=O)N(Cc1ccccc1)c1ccc(F)cc1 measured_attribute=IC50 result="> 100 µM (active)"
input_smiles=S=C(NNc1ccc2ccccc2c1)NC1CCCCC1 measured_attribute=IC50 result="> 100 µM (active)"
input_smiles=CC1CCN(c2c([N+](=O)[O-])nn(-c3ccc4c(c3)OCCO4)[n+]2[O-])CC1 measured_attribute=IC50 result="58.9 µM (active)"
input_smiles=O=C(NCCCN1CCOCC1)C(=O)N/N=C/c1ccccc1O measured_attribute=IC50 result="11.2 µM (active)"

Just so you know, measured IC50 for COc1ccccc1NC(=O)CSc1n[nH]c(-c2ccccn2)n1 came out at 6.84 µM (active)

* * *

Items are presented alongside their recorded AC50.
- MEASURED_ON: Cytochrome P450 3A4 (Homo sapiens, UniProt P08684)
- Sequence (P08684 whole entry): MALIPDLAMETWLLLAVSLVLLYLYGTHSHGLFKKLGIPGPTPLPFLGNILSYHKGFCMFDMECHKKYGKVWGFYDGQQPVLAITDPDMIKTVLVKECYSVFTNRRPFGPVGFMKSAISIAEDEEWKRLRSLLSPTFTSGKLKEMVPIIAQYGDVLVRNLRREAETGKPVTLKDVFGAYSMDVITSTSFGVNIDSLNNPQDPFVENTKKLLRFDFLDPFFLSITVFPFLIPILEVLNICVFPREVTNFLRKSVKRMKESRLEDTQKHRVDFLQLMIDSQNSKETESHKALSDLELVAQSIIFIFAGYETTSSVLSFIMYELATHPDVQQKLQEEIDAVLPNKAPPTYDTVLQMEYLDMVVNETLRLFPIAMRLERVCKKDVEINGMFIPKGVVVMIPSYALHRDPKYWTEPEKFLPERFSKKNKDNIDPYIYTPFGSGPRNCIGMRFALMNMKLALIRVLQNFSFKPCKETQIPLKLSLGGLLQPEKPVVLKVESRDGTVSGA
- TEST_CONTEXT: Potency

molecule=Cc1cc(=O)cc2oc3cc(N)c(-c4c(C)cc(O)cc4O)c(C)c3nc1-2 measured_on="Cytochrome P450 3A4 (Homo sapiens, UniProt P08684)" result="39.8 µM (inconclusive)"
molecule=Clc1ccc(C(Cl)(Cl)Cl)c(Cl)c1 measured_on="Cytochrome P450 3A4 (Homo sapiens, UniProt P08684)" result="31.6 µM (inconclusive)"
molecule=COC(=O)[C@@H]1C[C@@H]2CC[C@@H](O)C[C@@H]2N1Cc1ccc(C(F)(F)F)cc1 measured_on="Cytochrome P450 3A4 (Homo sapiens, UniProt P08684)" result="10 µM (inconclusive)"

Just so you know, measured AC50 for COc1ccc(-c2coc3c(O)c(OC)ccc3c2=O)cc1 [RETUSIN 7-METHYL ETHER] came out at 31.6 µM (inconclusive)

* * *

Items are presented alongside their recorded EC50.
- Tested on: H4
- PROTOCOL_NOTES: Luminescence Cell-Based Dose Response HTS to Identify Activators of 5'UTR Stem-Loop Driven Prion Protein mRNA Translation in H4 Neuroglioblastoma Cells. [Related pubchem assays: 1829 (Project Summary), 1814 (Primary HTS)]
- Type: functional
- TEST_CONTEXT: Homo sapiens
Active and inactive are the calls of the source.

These recorded examples may help you get a feel for the data.
compound=CCOC(=O)c1ccc(-c2ccc(/C=N/NC(=O)CN(c3ccccc3Cl)S(C)(=O)=O)o2)cc1 measured_attribute=EC50 result="33.3 µM (active)"
compound=Cc1c(C(=O)NCc2ccoc2)oc2ccc3c(c12)C(=O)CC(C)(C)O3 measured_attribute=EC50 result="> 120 µM (not active)"
compound="Cc1cc(C)n(CC(O)COc2ccc3ccccc3c2)n1 (stereo not given)" measured_attribute=EC50 result="31.3 µM (active)"

Just so you know, measured EC50 for CCS(=O)(=O)c1nnnn1-c1ccccc1S(C)(=O)=O came out at > 120 µM (not active)

Just so you know, measured EC50 for Cc1ccccc1Nc1nc(N)nc(CSc2ccc(F)cc2)n1 came out at < 0.1 µM (active)

* * *

- MEASURED_ON: Luciferin 4-monooxygenase (Photinus pyralis, UniProt P08659)
- Sequence (P08659 whole entry): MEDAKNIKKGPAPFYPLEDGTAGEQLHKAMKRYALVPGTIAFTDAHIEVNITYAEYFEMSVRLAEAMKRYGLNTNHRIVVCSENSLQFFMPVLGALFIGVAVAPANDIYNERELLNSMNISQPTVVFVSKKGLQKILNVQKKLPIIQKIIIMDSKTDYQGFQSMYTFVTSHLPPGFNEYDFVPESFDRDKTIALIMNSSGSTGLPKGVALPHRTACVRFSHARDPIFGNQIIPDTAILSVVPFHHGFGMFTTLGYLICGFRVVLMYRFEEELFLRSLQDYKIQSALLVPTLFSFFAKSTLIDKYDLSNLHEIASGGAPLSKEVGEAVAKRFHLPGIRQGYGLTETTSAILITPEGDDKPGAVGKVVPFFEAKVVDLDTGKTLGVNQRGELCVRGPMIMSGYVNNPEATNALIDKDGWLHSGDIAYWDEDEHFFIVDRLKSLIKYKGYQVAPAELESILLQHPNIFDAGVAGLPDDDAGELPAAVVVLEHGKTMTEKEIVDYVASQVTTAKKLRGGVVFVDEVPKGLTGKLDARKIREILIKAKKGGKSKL
- PROTOCOL_NOTES: firefly luciferase enzyme inhibitors, dose response, biochemical, luminescence (AID 1891)
Items are presented alongside their recorded EC50.

These recorded examples may help you get a feel for the data.
input_smiles=CCOC(=O)c1c(C)nc2sc3c(=O)n(-c4ccc(OC)cc4)nnc3c2c1-c1ccc(OC)cc1 measured_on="Luciferin 4-monooxygenase (Photinus pyralis, UniProt P08659)" result="> 112 µM (not active)"
input_smiles=COC(=O)c1cc2n(n1)CCN(Cc1ccc(F)cc1)C2=O measured_on="Luciferin 4-monooxygenase (Photinus pyralis, UniProt P08659)" result="> 112 µM (not active)"

Could you now look at the following compound, please?
Just so you know, measured EC50 for Cn1c(NC(=O)Cc2cccs2)cc(=O)n(C)c1=O came out at > 112 µM (not active)

* * *

- MEASURED_ON: Calpain-2 catalytic subunit (Sus scrofa, UniProt P43367)
- Sequence (P43367 whole entry): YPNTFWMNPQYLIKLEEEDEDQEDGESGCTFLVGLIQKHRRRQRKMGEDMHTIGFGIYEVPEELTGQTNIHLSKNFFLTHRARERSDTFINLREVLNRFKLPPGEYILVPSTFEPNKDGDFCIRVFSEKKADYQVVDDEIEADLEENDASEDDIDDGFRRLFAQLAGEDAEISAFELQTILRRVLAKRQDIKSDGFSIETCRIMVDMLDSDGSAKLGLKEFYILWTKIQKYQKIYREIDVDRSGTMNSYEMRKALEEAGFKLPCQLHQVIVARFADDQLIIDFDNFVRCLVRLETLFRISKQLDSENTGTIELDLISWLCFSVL
- PROTOCOL_NOTES: pig calpain II inhibitor potency, dose response, biochemical, fluorogenic peptide substrate (AID 1420)
- Format: functional
MEASURED_ATTRIBUTE: IC50

These recorded examples may help you get a feel for the data.
compound="CC(C)CC(C(=O)OCC(=O)c1c(N)n(C)c(=O)n(C)c1=O)N1C(=O)C2CC=CCC2C1=O (stereo not given)" measured_attribute=IC50 result="12.9 µM (not active)"
compound="CC(=O)c1ccc(N=C(S)N(Cc2ccccc2)C(C)C2CC2)cc1 (stereo not given)" measured_attribute=IC50 result="23.9 µM (not active)"
compound=Cn1c(=O)[nH]c(=O)c2[nH]c(N(Cc3ccccc3)Cc3ccccc3)nc21 measured_attribute=IC50 result="> 50 µM (not active)"
compound=COC(=O)c1ccccc1NC(=S)NC(=O)COc1ccccc1 measured_attribute=IC50 result="6.37 µM (not active)"
compound="CCOC(=O)C1=C(CNCCc2ccc(Cl)cc2)NC(=O)NC1c1ccc2c(c1)OCO2 (stereo not given)" measured_attribute=IC50 result="> 50 µM (not active)"
compound=COc1ccc(NC(=O)CN(c2ccccc2)S(=O)(=O)c2ccccc2)c(OC)c1 measured_attribute=IC50 result="49.3 µM (not active)"
compound=O=C(NCc1cccc(Cl)c1)c1ccc2c(c1)SC1=NS(=O)(=O)CCN12 measured_attribute=IC50 result="14.8 µM (not active)"
compound=CC(C)(C)NC(=O)c1cc(C(C)(C)C)c(O)c(C(C)(C)C)c1 measured_attribute=IC50 result="3.38 µM (not active)"
compound=c1ccc(CCn2nnnc2CN2CCN(C3CCCC3)CC2)cc1 measured_attribute=IC50 result="> 50 µM (not active)"

Could you now look at the following compound, please?
Just so you know, measured IC50 for Cc1nc(-c2ccccc2)sc1C(=O)CSc1ccc(Cl)cc1 came out at 11.7 µM (not active)

Reference for the values: ChEMBL document CHEMBL1201862
